Biological target: T1, hu-IL-36α (human, UniProt Q9UHA7 6-158)
T1 sequence: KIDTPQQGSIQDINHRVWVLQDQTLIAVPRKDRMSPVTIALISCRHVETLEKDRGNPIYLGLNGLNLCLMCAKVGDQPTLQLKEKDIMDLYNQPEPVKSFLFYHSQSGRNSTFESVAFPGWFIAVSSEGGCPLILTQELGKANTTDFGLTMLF
Assay: cell-based or functional assay

binder: mAb2.0 IgG (antibody, V domains shown) VH: QLQLQESGPGLVKPSETLSLTCTVSGGSISTSSYYWGWIRQPPGKGLEWIGSIYYTGNTYYNPSLKSRVTISVDTSKNQFSLKLSSVTAADTAVYYCARVRYGVGVPRYFDPWGQGTLVTVSS VL: QSVLTQPPSVSGAPGQRVTISCTGSSSNIGAHYDVHWYQQLPGTAPKLLIYGNDNRPSGVPDRFSGSKSGTSASLAITGLQAEDEADYYCQSYDYSLSGYVFGGGTKLTVLG
IC50, HEK Blue SEAP reporter assay: 5.7 nM

binder: mAb4.0 IgG (antibody, V domains shown) VH: QLQLQESGPGLVKPSETLSLTCTVSGGSIGSRSYYWGWIRQPPGKGLEWIGSIHYSGTTYYNPSLKSRVTISVDTSKNQFSLKLSSVTAADTAVYYCARVAPSYPRVFDYWGQGTLVTVSS VL: QSVLTQPPSVSGAPGQRVTISCTGSSSNIGAGYDVHWYQQLPGTAPKLLIYGNRNRPSGVPDRFSGSKSGTSASLAITGLQAEDEADYYCQSYDYSLRVYVFGGGTKLTVL
IC50, HEK Blue SEAP reporter assay: 16 nM

binder: mAb1.0 IgG (antibody, V domains shown) VH: QVQLVESGGGVVQPGRSLRLSCAASGFSFSAYAMHWVRQAPGKGLEWVAVISYDGTNEYYADSVKGRFTISRDNSKNTLYLQMNSLRAEDTAVYYCARGIRIFTSYFDSWGQGTLVTVSS VL: QSVLTQPPSVSGAPGQRVTISCTGSSSNIGAHYDVHWYQQLPGTAPKLLIYSNNNRPSGVPDRFSGSKSGTSASLAITGLQAEDEADYYCQSYDYSLRGYVFGGGTKLTVL
IC50, HEK Blue SEAP reporter assay: 43 nM

binder: mAb3.0 IgG (antibody, V domains shown) VH: QLQLQESGPGLVKPSETLSLTCTVSGGSISSTSYYWGWIRQPPGKGLEWIGSIHYSGNTYYNPSLKSRVTISVDTSKNQFSLKLSSVTAADTAVYYCARVHYGGYIPRRFDHWGQGTLVTVSS VL: QSVLTQPPSVSGAPGQRVTISCTGSSSNIGAGYDVHWYQQLPGTAPKLLIYGNTNRPSGVPDRFSGSKSGTSASLAITGLQAEDEADYYCQSYDYSLRGYVFGGGTKLTVL
IC50, HEK Blue SEAP reporter assay: 90 nM

binder: mAb5.0 IgG (antibody, V domains shown) VH: EVQLLESGGGLVQPGGSLRLSCAASGFTFSTYAMSWVRQAPGKGLEWVSGISGGSGYTYYADSVKGRFTISRDNSKNTLYLQMNSLRAEDTAVYYCARVVTYRDPPASFDYWGQGTLVTVSS VL: QSVLTQPPSVSGAPGQRVTISCTGSSSNIGAHYDVHWYQQLPGTAPKLLIYGNDNRPSGVPDRFSGSKSGTSASLAITGLQAEDEADYYCQSYDYSLKAYVFGGGTKLTVL
IC50, HEK Blue SEAP reporter assay: 95 nM
